# System: HCT-116
# ASSAY_COMMENT: NCI tumour cell line growth inhibition, 48 h
Activity calls are given as the source filed them. No stated cut-off is given here; in the data, active = GI50 up to about 1.1 µM and inactive = higher.
Please answer using one outcome listed in Yes = active, No = inactive

Example results:
COMPOUND	ASSIGNED_CATEGORY
Nc1ncnc2c1ncn2[C@@H]1O[C@H](COP(=O)(O)OP(=O)(O)OC[C@H]2O[C@@H](OCCCO)[C@H](O)[C@@H]2O)[C@@H](O)[C@H]1O	No
O=C1Nc2ccccc2/C1=N/NC(=O)c1ccccc1O	No
NC1=C(N2CCOCC2)C(=O)NC2=N/C(=C\c3ccccc3)C(=O)N21	No
Cc1ccc(C2NC(=O)c3ccccc3N2)c(C)c1 (stereo not drawn)	No

query: GET /call?item= COc1cc2c(c(OC)c1OC)-c1ccc(SC)c(=O)cc1[C@@H](NC(=O)c1ccc([N+](=O)[O-])cc1)CC2 returns the recorded outcome of this test.
result: Yes

query: Same read-out for O=C(O)CCCCn1cnc2c(S)ncnc21 ?
result: No

query: Same read-out for O=C(O)c1ccc([N+](=O)[O-])c(P(=O)(O)O)c1 ?
result: No
